// provenance: PubChem BioAssay (Tox21)

molecular target: Luciferin 4-monooxygenase (Photinus pyralis) (UniProt P08659); test: qHTS assay to identify small molecule inhibitors of firefly luciferase (AID 1224835); also: nearly all actives have a fitted effect of over 25% in size; settings: purified P. pyralis luciferase, luminescence inhibition; series mostly up to 115 µM
Sequence (P08659 whole entry, looked up): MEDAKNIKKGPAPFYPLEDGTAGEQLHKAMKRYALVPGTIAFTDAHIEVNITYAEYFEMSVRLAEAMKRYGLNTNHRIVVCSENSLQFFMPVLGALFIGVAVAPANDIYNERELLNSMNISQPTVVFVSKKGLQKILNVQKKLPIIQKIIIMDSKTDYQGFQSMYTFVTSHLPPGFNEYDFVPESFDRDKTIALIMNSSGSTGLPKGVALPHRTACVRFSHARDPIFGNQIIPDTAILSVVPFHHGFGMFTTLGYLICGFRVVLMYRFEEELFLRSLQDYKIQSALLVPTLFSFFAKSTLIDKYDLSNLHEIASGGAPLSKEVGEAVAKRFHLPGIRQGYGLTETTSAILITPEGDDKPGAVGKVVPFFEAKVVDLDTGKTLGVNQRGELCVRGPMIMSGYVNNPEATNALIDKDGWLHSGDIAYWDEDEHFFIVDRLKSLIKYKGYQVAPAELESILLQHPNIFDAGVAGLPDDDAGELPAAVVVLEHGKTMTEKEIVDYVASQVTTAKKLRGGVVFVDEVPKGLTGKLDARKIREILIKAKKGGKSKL
Inconclusive results are not listed. Calls of active or inactive are those of the source. Calls follow the shape of the dose curve; as a rule, active = well fitted inhibition curve with a large enough effect in the repeat runs; inconclusive = weak or mixed curves; inactive = flat fitted curve, though single readings scatter.
Classes used: active, inactive

[
  {
    "MOL_SMILES": "CC[C@H](NC(=O)c1cc(F)ccc1NS(=O)(=O)c1cccc2cccnc12)c1ccccc1",
    "LABEL_VALUE": "inactive"
  },
  {
    "MOL_SMILES": "CCCOc1ccc(S(=O)(=O)N2CCN(CC)CC2)cc1-c1nc2c(CC)n(Cc3ccccn3)nc2c(=O)[nH]1",
    "LABEL_VALUE": "inactive"
  },
  {
    "MOL_SMILES": "O=C(c1ccc(O)cc1)c1ccc(Cl)cc1",
    "LABEL_VALUE": "active"
  },
  {
    "MOL_SMILES": "CCOC(=O)c1ccccc1C",
    "LABEL_VALUE": "inactive"
  },
  {
    "MOL_SMILES": "CC(=O)Nc1ccc(N)cc1",
    "LABEL_VALUE": "inactive"
  }
]

====

test: qHTS assay to identify small molecule agonists of the farnesoid-X-receptor (FXR) signaling pathway - cell viability counter screen (AID 743218); conditions: FXR-bla HEK293T viability, CellTiter-Glo luminescence, 16 h; series mostly up to 62.6 µM; also: nearly all actives have a fitted effect of over 45% in size
Records with an inconclusive call do not appear. Active and inactive are the calls of the source. The call rests on the fitted dose curve; in most records, active means well fitted cell-killing curve with a large enough effect in the repeat runs; inconclusive means weak or mixed curves, or effect the other way; inactive means no such curve, though single readings can be large or run the other way.
Classes used: Y = active, N = inactive

[
  {
    "COMPOUND": "C[N+]1(C)CCC(=C(c2ccccc2)c2ccccc2)CC1",
    "LABEL_VALUE": "N"
  },
  {
    "COMPOUND": "c1cc[c]([Bi]([c]2ccccc2)[c]2ccccc2)cc1",
    "LABEL_VALUE": "N"
  },
  {
    "COMPOUND": "CCC(C)(O)CCC=C(C)C (stereo not given)",
    "LABEL_VALUE": "N"
  },
  {
    "COMPOUND": "O=C(O)c1ccc(CO)o1",
    "LABEL_VALUE": "N"
  },
  {
    "COMPOUND": "CC1CC(=O)NN=C1c1ccc(NCC(C)(C)NCC(O)COc2cc(Cl)ccc2C#N)cc1 (stereo not given)",
    "LABEL_VALUE": "N"
  },
  {
    "COMPOUND": "Fc1c(F)c(F)c(Br)c(F)c1F",
    "LABEL_VALUE": "N"
  },
  {
    "COMPOUND": "C=CC(C)(C)CC(=O)OC",
    "LABEL_VALUE": "N"
  },
  {
    "COMPOUND": "CNCCCC1c2ccccc2C=Cc2ccccc21",
    "LABEL_VALUE": "Y"
  },
  {
    "COMPOUND": "CCn1nc(C)c2c1C(=O)NCC(c1ccc(O)cc1)=N2",
    "LABEL_VALUE": "N"
  },
  {
    "COMPOUND": "CNC(=S)NC",
    "LABEL_VALUE": "Y"
  },
  {
    "COMPOUND": "CC(=O)OCC(=O)[C@@]12OC(C)(C)O[C@@H]1C[C@H]1[C@@H]3C[C@H](F)C4=CC(=O)C=C[C@]4(C)[C@@]3(F)[C@@H](O)C[C@@]12C",
    "LABEL_VALUE": "N"
  },
  {
    "COMPOUND": "CCCCCCCC/C=C\\CCCCCCCC(=O)OC(CO)CO",
    "LABEL_VALUE": "N"
  },
  {
    "COMPOUND": "CCC(C(=O)OCCN(CC)CC)c1ccccc1 (stereo not given)",
    "LABEL_VALUE": "N"
  },
  {
    "COMPOUND": "N#C/C(=C1\\SCC(c2ccccc2Cl)S1)n1ccnc1 (stereo not given)",
    "LABEL_VALUE": "N"
  },
  {
    "COMPOUND": "Cc1cc(O)c(C(C)C)cc1Cl",
    "LABEL_VALUE": "N"
  },
  {
    "COMPOUND": "CO/N=C1\\CN(c2nc3c(cc2F)c(=O)c(C(=O)O)cn3C2CC2)CC1CN (stereo not given)",
    "LABEL_VALUE": "N"
  },
  {
    "COMPOUND": "O=S1OCCO1",
    "LABEL_VALUE": "N"
  },
  {
    "COMPOUND": "O=C1NCCN1",
    "LABEL_VALUE": "N"
  },
  {
    "COMPOUND": "COc1ccc(CCC(=O)c2c(O)cc(O[C@@H]3O[C@H](CO)[C@@H](O)[C@H](O)[C@H]3O[C@@H]3O[C@@H](C)[C@H](O)[C@@H](O)[C@H]3O)cc2O)cc1O",
    "LABEL_VALUE": "N"
  },
  {
    "COMPOUND": "COC(=O)c1cc(S(N)(=O)=O)ccc1OC",
    "LABEL_VALUE": "N"
  },
  {
    "COMPOUND": "C[C@@H]1C[C@H]2[C@@H]3CCC4=CC(=O)C=C[C@]4(C)[C@@]3(F)[C@@H](O)C[C@]2(C)[C@H]1C(=O)CO",
    "LABEL_VALUE": "N"
  },
  {
    "COMPOUND": "COC(=O)CC(=O)C(C)(C)C",
    "LABEL_VALUE": "N"
  },
  {
    "COMPOUND": "CCc1c2c(nc3ccc(OC(=O)N4CCC(N5CCCCC5)CC4)cc13)-c1cc3c(c(=O)n1C2)COC(=O)[C@]3(O)CC",
    "LABEL_VALUE": "N"
  },
  {
    "COMPOUND": "COCCOC",
    "LABEL_VALUE": "N"
  },
  {
    "COMPOUND": "CCN(CC)CCNC(=O)c1ccc(NC(C)=O)cc1",
    "LABEL_VALUE": "N"
  },
  {
    "COMPOUND": "CCCOc1ccc(S(=O)(=O)N2CCN(CC)CC2)cc1-c1nc2c(CC)n(Cc3ccccn3)nc2c(=O)[nH]1",
    "LABEL_VALUE": "N"
  },
  {
    "COMPOUND": "CC(C)=CC=O",
    "LABEL_VALUE": "N"
  },
  {
    "COMPOUND": "O=C(NCCCN1CCOCC1)c1ccc(Cl)cc1",
    "LABEL_VALUE": "N"
  },
  {
    "COMPOUND": "CCCCC(CC)CNCC(CC)CCCC (stereo not given)",
    "LABEL_VALUE": "N"
  },
  {
    "COMPOUND": "CCC(C)(C)C1CCC(O)CC1 (stereo not given)",
    "LABEL_VALUE": "N"
  },
  {
    "COMPOUND": "Cc1nc2ccccn2c(=O)c1CCN1CCC(C(=O)c2ccc(F)cc2)CC1",
    "LABEL_VALUE": "N"
  },
  {
    "COMPOUND": "Cc1ccc(S(=O)(=O)NC2CCCCC2)cc1",
    "LABEL_VALUE": "N"
  },
  {
    "COMPOUND": "CC1=NN(c2ccc(C(=O)O)cc2)C(=O)C1",
    "LABEL_VALUE": "N"
  },
  {
    "COMPOUND": "COc1ccc([C@@H]2Sc3ccccc3NC(=O)[C@@H]2O)cc1",
    "LABEL_VALUE": "N"
  },
  {
    "COMPOUND": "O=C(N[C@@H](c1ccccc1)[C@@H]1CCCCN1)c1cccc(C(F)(F)F)c1Cl",
    "LABEL_VALUE": "Y"
  },
  {
    "COMPOUND": "CCOCCn1c(C2CCN(CCc3ccc(C(C)(C)C(=O)O)cc3)CC2)nc2ccccc21",
    "LABEL_VALUE": "N"
  },
  {
    "COMPOUND": "CC(=O)Oc1ccc(C(=C2CCCCC2)c2ccc(OC(C)=O)cc2)cc1",
    "LABEL_VALUE": "N"
  },
  {
    "COMPOUND": "CN1C(=O)CC(C)(c2ccccc2)C1=O (stereo not given)",
    "LABEL_VALUE": "N"
  },
  {
    "COMPOUND": "NC(=O)Nc1ccc(Cl)c(Cl)c1",
    "LABEL_VALUE": "N"
  },
  {
    "COMPOUND": "CCCCC1C(=O)N(c2ccccc2)N(c2ccc(O)cc2)C1=O (stereo not given)",
    "LABEL_VALUE": "N"
  }
]
